target: HLA-DPB1*0501 (human (endogenous in HO301)); assay: radioligand binding
Measured metric: other

{"Binder": "EKKYFAATAFEPLAA [… Q9A]", "Reported": 1}
{"Binder": "EKKYFAATQFIPLAA [… E11I]", "Reported": 2.1}
{"Binder": "EKKYFAATQFWPLAA [… E11W]", "Reported": 0.13}
{"Binder": "EKKYFAATFFEPLAA [… Q9F]", "Reported": 13}
